Value source: patent US7829560B2

Biological target: p38α (Homo sapiens, UniProt Q16539)
Construct: p38 MAP Kinases are recombinant human full-length proteins with an amino-terminal GST fusion; GST (N); purchased Upstate Biotechnology Inc; host or cells: E. coli
Sequence (Q16539 whole entry, the tested form may be a part): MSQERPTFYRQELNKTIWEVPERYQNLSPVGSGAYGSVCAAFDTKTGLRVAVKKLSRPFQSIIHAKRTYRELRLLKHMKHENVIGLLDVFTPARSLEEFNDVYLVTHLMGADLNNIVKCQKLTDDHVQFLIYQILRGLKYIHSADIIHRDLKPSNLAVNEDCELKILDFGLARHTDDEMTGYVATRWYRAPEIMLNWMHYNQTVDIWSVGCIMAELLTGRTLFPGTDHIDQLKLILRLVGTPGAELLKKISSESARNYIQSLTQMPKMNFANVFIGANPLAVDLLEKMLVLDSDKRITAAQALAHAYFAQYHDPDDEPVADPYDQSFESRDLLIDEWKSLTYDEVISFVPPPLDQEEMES
Experiment: p38 MAP Kinase assay: inhibition of ATF2 phosphorylation, ELISA
Type: biochemical
Details: ATF2 phosphorylation; read-out: [ENZ] P38 ALPHA, IC50, ELISA
Text: Compounds of the invention are screened for the ability to inhibit ATF2 phosphorylation by p38 MAP Kinase in vitro. […]
property_measured: IC50 (nM)
Answers are plain numbers, in nM.

For the 6 molecules below, give their IC50 values.
1. CC(C)CN(C)c1cc(F)cc(C(=O)Nc2ccc(OCCN3CCOCC3)c3ccccc23)c1
2. O=C(Nc1ccc(OCCCN2CCC3(CC2)OCCO3)c2ccccc12)c1cc(F)cc(N2CCCCC2)c1
3. Cc1ccc(N2CCOCC2)cc1C(=O)Nc1ccc(OCCN2CCOCC2)c2ccccc12
4. CC1CCCN1c1cc(C(=O)Nc2ccc(OCCN3CCOCC3)c3ccccc23)ccn1 (stereo not shown)
5. CCC1CCC(Oc2cc(F)cc(C(=O)Nc3ccc(OCCN4CCOCC4)c4ccccc34)c2)CC1 (stereo not shown)
6. O=C(Nc1ccc(OCCN2CCOCC2)c2ccccc12)c1ccc2ccccc2c1

Result:
1: 1300; 2: 4810; 3: 2460; 4: 822; 5: 9280; 6: 3180

For the 4 molecules below, give their IC50 values.
1. O=C(Nc1ccc(OCCN2CCOCC2)c2ccccc12)c1cccc(-c2cccnc2)c1
2. CC(C)(C)CNc1cccc(C(=O)Nc2ccc(OCCN3CCOCC3)c3ccccc23)c1
3. C[C@@H]1CN(c2nccc(Oc3ccc(NC(=O)c4cc(F)cc(N5CCCCC5)c4)c4ccccc34)n2)C[C@H](C)O1
4. CCN1CCN(c2nccc(Oc3ccc(NC(=O)c4cc(F)cc(N5CCOCC5)c4)c4ccccc34)n2)CC1

Result:
[8810, 735, 50.2, 13.3]

For the 6 molecules below, give their IC50 values.
1. CC1CCCC(C)N1c1cc(F)cc(C(=O)Nc2ccc(OCCN3CCOCC3)c3ccccc23)c1 (stereo not shown)
2. CCOC(=O)N1CCN(c2nccc(Oc3ccc(NC(=O)c4cc(F)cc(N5CCOCC5)c4)c4ccccc34)n2)CC1
3. O=C(Nc1ccc(OCc2ccncc2)c2ccccc12)c1cc(F)cc(OC2CCOCC2)c1
4. CC1CCC(Oc2cc(F)cc(C(=O)Nc3ccc(OCCN4CCOCC4)c4ccccc34)c2)CC1 (stereo not shown)
5. COc1cccc(-c2cccc(C(=O)Nc3ccc(OCCN4CCOCC4)c4ccccc34)c2)c1
6. O=C(Nc1ccc(CCCN2CCOCC2)c2ccccc12)c1cc(F)cc(N2CCOCC2)c1

Result:
1680
10.5
821
1050
900
1010

For the 3 molecules below, give their IC50 values.
1. O=C(Nc1ccc(Oc2ccnc(NCCN3CCCCC3)n2)c2ccccc12)c1cc(F)cc(N2CCCCC2)c1
2. O=C(Nc1ccc(Oc2ccnc(NCC3OCCO3)n2)c2ccccc12)c1cc(F)cc(N2CCOCC2)c1
3. CC1CCN(c2cc(F)cc(C(=O)Nc3ccc(OCCN4CCOCC4)c4ccccc34)c2)CC1

Result:
3
2.9
1070

For the 2 molecules below, give their IC50 values.
1. CC1CCCN1c1nccc(Oc2ccc(NC(=O)c3cc(F)cc(N4CCOCC4)c3)c3ccccc23)n1 (stereo not shown)
2. COc1ccc(Cl)cc1-c1cccc(C(=O)Nc2ccc(OCCN3CCOCC3)c3ccccc23)c1

Result:
1: 68.7; 2: 5060
